Give measured IC50 for each item. Keep answers brief.
# Subject Of Test: b-Raf (V600E) (Homo sapiens (Human), UniProt P15056, V600E)
# Sequence (P15056 whole entry V600E): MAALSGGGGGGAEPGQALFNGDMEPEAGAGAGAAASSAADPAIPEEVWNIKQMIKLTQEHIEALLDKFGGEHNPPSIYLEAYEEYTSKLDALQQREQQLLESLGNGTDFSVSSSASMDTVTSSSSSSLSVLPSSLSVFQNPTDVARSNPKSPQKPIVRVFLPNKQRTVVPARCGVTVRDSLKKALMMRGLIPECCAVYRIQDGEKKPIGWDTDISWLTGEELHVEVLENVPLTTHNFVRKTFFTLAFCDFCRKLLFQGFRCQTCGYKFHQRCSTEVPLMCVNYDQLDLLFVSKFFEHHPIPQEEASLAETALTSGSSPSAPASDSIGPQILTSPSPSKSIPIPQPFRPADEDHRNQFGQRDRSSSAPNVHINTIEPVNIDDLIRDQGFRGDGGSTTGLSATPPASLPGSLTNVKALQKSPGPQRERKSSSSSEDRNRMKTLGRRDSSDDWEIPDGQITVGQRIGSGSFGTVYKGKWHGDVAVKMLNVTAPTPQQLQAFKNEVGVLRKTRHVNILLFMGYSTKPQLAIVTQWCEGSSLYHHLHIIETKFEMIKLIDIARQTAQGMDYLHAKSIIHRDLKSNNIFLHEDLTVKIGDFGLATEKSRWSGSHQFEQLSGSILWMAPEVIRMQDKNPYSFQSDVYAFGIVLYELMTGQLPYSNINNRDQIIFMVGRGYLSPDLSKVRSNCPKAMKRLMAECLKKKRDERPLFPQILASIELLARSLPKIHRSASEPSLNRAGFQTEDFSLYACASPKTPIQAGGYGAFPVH
# Settings: read-out: b-Raf IC-50; Table 2; AlphaScreen, 3 hours reaction
Give bare numbers, in nM.

Here's what some known entries look like.
>  <Smiles>
Cc1ccc(C(=O)Nc2cccc(C(F)(F)F)c2)cc1-c1cc(N2CCS(=O)(=O)CC2)nc(N2CCOCC2)n1

>  <Measure Unit>
nM

>  <IC50>
2.5

$$$$
>  <Smiles>
CCOc1ncc(-c2cc(NC(=O)c3cnnc(C(C)(C)C#N)c3)cnc2C)cc1N1CCOCC1

>  <Measure Unit>
nM

>  <IC50>
16.5

$$$$
>  <Smiles>
CCc1cccc(NC(=O)c2ccc(C)c(-c3cc(N4CCOCC4)c(=O)n(C)c3)c2)c1

>  <Measure Unit>
nM

>  <IC50>
2.4

$$$$
>  <Smiles>
Cn1cc(-c2cc(C(=O)Nc3cccc(C(C)(C)O)c3)cnc2Cl)cc(N2CCOCC2)c1=O

>  <Measure Unit>
nM

>  <IC50>
50.4

$$$$

Count: 7. Required value per item: IC50.
1. Cc1ncc(NC(=O)c2ccnc(C(C)(C)F)c2)cc1-c1cnc(Cl)c(N2CCOCC2)c1
2. Cc1ccc(NC(=O)c2ccnc(C(C)(C)C#N)c2)cc1-c1cc(N2CCOCC2)c(=O)n(CCC#N)c1
3. Cn1cc(-c2cc(NC(=O)c3ccnc(C(C)(F)F)c3)ccc2F)cc(N2CCOCC2)c1=O
4. COc1ncc(-c2cc(NC(=O)c3ccnc(C(F)(F)F)c3)cnc2C)cc1N1CCOCC1
5. CCC(F)(F)c1cc(C(=O)Nc2ccc(C)c(-c3cc(N4CCOCC4)c(=O)n(C)c3)c2)ccn1
6. CCOc1ncc(-c2cc(NC(=O)c3cccc(C(F)(F)F)c3)ccc2C)cc1N1CCOCC1
7. Cc1ccc(NC(=O)c2ccnc(C(C)(C)C#N)c2)cc1-c1cc(N2CCOCC2)c(=O)n(C)n1

1. 6
2. 4.4
3. 4.3
4. 7.4
5. 2
6. 1
7. 5.4

Count: 8. Required value per item: IC50.
1. CCOc1ncc(-c2cc(NC(=O)c3cnnc(C(F)(F)F)c3)ccc2C)cc1N1CCOCC1
2. CCc1cc(C(=O)Nc2ccc(C)c(-c3cc(N4CCOCC4)c(=O)n(C)c3)c2)ccn1
3. Cc1ncc(NC(=O)c2cccc(C(F)(F)F)c2)cc1-c1cc(N2CCOCC2)c(=O)n(C)c1
4. COc1ccc(C(=O)Nc2cnc(Cl)c(-c3cc(N4CCOCC4)c(=O)n(C)c3)c2)cc1C(F)(F)F
5. CCOc1ncc(-c2cc(NC(=O)c3cccc(S(C)(=O)=O)c3)ccc2C)cc1N1CCOCC1
6. Cc1ncc(NC(=O)c2cccc(OC(C)C)c2)cc1-c1cc(N2CCOCC2)c(=O)n(C)c1
7. Cc1ncc(NC(=O)c2ccnc(C(C)(F)F)c2)cc1-c1cc(N2CCOCC2)c(=O)n(C)c1
8. Cc1ncc(NC(=O)c2cccc(C(F)(F)F)c2)cc1-c1cnc(OC(C)C)c(N2CCOCC2)c1

1: 1.1; 2: 1.2; 3: 4.7; 4: 6.8; 5: 0.7; 6: 8.4; 7: 12.3; 8: 2.4

Count: 6. Required value per item: IC50.
1. Cc1ncc(NC(=O)c2cccc(C(F)(F)F)c2)cc1-c1cc(N2CCOCC2)c(=O)n(CCC#N)c1
2. Cc1ccc(NC(=O)c2ccnc(C(C)(C)F)c2)cc1-c1cc(N2CCOCC2)c(=O)n(C)c1
3. Cc1ccc(NC(=O)c2cnnc(C3CC3)c2)cc1-c1cnc(OC2CCOCC2)c(N2CCOCC2)c1
4. Cc1ncc(NC(=O)c2cccc(C(F)(F)F)c2)cc1-c1cnc(OC2CC3(COC3)C2)c(N2CCOCC2)c1
5. Cc1ccc(NC(=O)c2cccc(S(C)(=O)=O)c2)cc1-c1ccnc(N2CCOCC2)c1
6. CCOc1ncc(-c2cc(NC(=O)c3cccc(-c4nnco4)c3)cnc2C)cc1N1CCOCC1

[11.4, 2.5, 0.4, 1.1, 0.6, 7.6]

* * *

# Subject Of Test: b-Raf (V600E) (Homo sapiens (Human), UniProt P15056, V600E)
# Settings: read-out: b-Raf IC-50; AlphaScreen, 60 min pre-incubation, reaction 3 hours at room temperature
Readout Name: pIC50
Give bare numbers, as −log10 of the molar value.

>  <Molecule>
COc1nnc(-c2cc(C(=O)Nc3ccnc(C(F)(F)F)c3)ccc2C)cc1N1CCOCC1 [Example 1017]

>  <Quantitative Result>
9.01

$$$$
>  <Molecule>
Cc1ccc(NC(=O)c2ccnc(C(F)F)c2)cc1-c1cc(N2CCOCC2)nc(NCCO)c1F [Example 1016]

>  <Quantitative Result>
8.64

$$$$
>  <Molecule>
Cc1ncc(NC(=O)c2ccnc(C(C)(C)F)c2)cc1-c1cc(NCCO)nc(N2CCOC[C@H]2C)c1 [Example 1138]

>  <Quantitative Result>
7.56

$$$$
>  <Molecule>
Cc1cc(=O)c(C(=O)Nc2cccc(C(F)(F)F)c2)cn1-c1ccnc(N2CCOCC2)c1 [Example 1175]

>  <Quantitative Result>
7.10

$$$$
>  <Molecule>
Cc1ccc(NC(=O)c2ccnc(C3(C#N)CC3)c2)cc1-c1cc(NCCO)nc(N2CCOCC2)c1 [Example 1050]

>  <Quantitative Result>
8.88

$$$$

Note: attention shifts to another entry.
Data request, read-out pIC50, for Cc1ccc(NC(=O)c2ccnc(C(C)(F)F)c2)cc1-c1cnc(OC(C)C)c(N2CCOCC2)c1 [Example 945] 8.87

* * *

Give measured pIC50 for each item. Keep answers brief.
# Subject Of Test: b-Raf (V600E) (Homo sapiens (Human), UniProt P15056, V600E)
# Settings: read-out: b-Raf IC-50; AlphaScreen, 60 min pre-incubation, reaction 3 hours at room temperature
Give bare numbers, as −log10 of the molar value.

Here's what some known entries look like.
>  <Smiles>
Cc1ccc(NC(=O)c2cnnc(C(F)(F)F)c2)cc1-c1cc(N2CCOCC2)nc(N2CC(O)C2)c1

>  <pIC50>
8.62

$$$$
>  <Smiles>
Cc1ccc(NC(=O)c2ccnc(C(C)(C)C#N)c2)cc1-c1cnc(OCCO)c(N2CCOCC2)c1

>  <pIC50>
8.52

$$$$
>  <Smiles>
Cc1ccc(NC(=O)c2cc(C(C)(C)C#N)ccn2)cc1-c1cnc(OC(C)C)c(N2CCOCC2)c1

>  <pIC50>
8.63

$$$$

Note: attention shifts to another entry.
Data request, read-out pIC50, for "Cc1ccc(NC(=O)c2ccnc(C(F)F)c2)cc1-c1cc(OC2CCOCC2)nc(N2CCOCC2)c1" 9.22

* * *

# Subject Of Test: b-Raf (V600E) (Homo sapiens (Human), UniProt P15056, V600E)
# Settings: read-out: b-Raf IC-50; AlphaScreen, 60 min pre-incubation, 3 hours reaction
Readout Name: pIC50
One number for each entry, as −log10 of the molar value.

Count: 5. Required value per item: pIC50.
1. CCC(F)(F)c1cc(C(=O)Nc2ccc(C)c(-c3cc(N4CCOCC4)c(OCCO)nn3)c2)ccn1 [Example 589]
2. CCNc1nc(-c2cc(NC(=O)c3ccnc(C(C)(C)O)c3)ccc2C)cc(N2CCOC[C@@H]2C)n1 [Example 713]
3. Cc1ccc(NC(=O)c2ccnc(C(C)(F)F)c2)cc1-c1cc(N2CCOC[C@@H]2C)n(C)c(=O)c1 [Example 525]
4. Cc1ccc(NC(=O)c2ccnc(C(C)C)c2)cc1-c1cc(N2CCOCC2)nc(N(C)C)n1 [Example 757]
5. CCNc1nc(-c2cc(NC(=O)c3ccnc(C(C)(C)O)c3)ccc2C)cc(N2CCOCC2)n1 [Example 705]

1. 8.82
2. 8.60
3. 8.42
4. 8.85
5. 8.39

Data request, read-out pIC50, for Cc1ccc(NC(=O)c2cccc(C(F)(F)F)c2)cc1-c1nc2c(c(N3CCOCC3)n1)CNC2 [Example 836] 8.51

* * *

# Subject Of Test: b-Raf (V600E) (Homo sapiens (Human), UniProt P15056, V600E)
# Settings: read-out: b-Raf IC-50; AlphaScreen, 60 min pre-incubation, reaction 3 hours at room temperature
pIC50: −log10 of the molar value.
Tag: TRUE if measured pIC50 is not below 8, FALSE if it is.

>  <Smiles>
Cc1ncc(NC(=O)c2ccnc(C(C)(C)F)c2)cc1-c1cc(N2CCOCC2)c(OC(C)C)nn1

>  <Subject Of Test>
b-Raf (V600E) (Homo sapiens (Human), UniProt P15056, V600E)

>  <Assigned Category>
TRUE

$$$$
>  <Smiles>
Cc1ccc(NC(=O)c2cccc(C(F)(F)F)c2)cc1-c1cc(N2CCOCC2)nc(N2C[C@H](O)CC2=O)c1

>  <Subject Of Test>
b-Raf (V600E) (Homo sapiens (Human), UniProt P15056, V600E)

>  <Assigned Category>
TRUE

$$$$
>  <Smiles>
Cc1ncc(NC(=O)c2ccnc(C3CC3)c2)cc1-c1cc(N2CCOCC2)nc(N2CC(C)(O)C2)c1

>  <Subject Of Test>
b-Raf (V600E) (Homo sapiens (Human), UniProt P15056, V600E)

>  <Assigned Category>
TRUE

$$$$
>  <Smiles>
O=C(Nc1c[nH]c(=O)c(-c2ccnc(N3CCOCC3)c2)c1)c1cccc(C(F)F)c1

>  <Subject Of Test>
b-Raf (V600E) (Homo sapiens (Human), UniProt P15056, V600E)

>  <Assigned Category>
FALSE

$$$$
>  <Smiles>
COc1nnc(-c2cc(C(=O)Nc3ccnc(C(C)(F)F)c3)ccc2C)cc1N1CCOCC1

>  <Subject Of Test>
b-Raf (V600E) (Homo sapiens (Human), UniProt P15056, V600E)

>  <Assigned Category>
TRUE

$$$$
>  <Smiles>
Cc1ccc(NC(=O)c2cnnc(C(F)(F)F)c2)cc1-c1cc(OC2CCOCC2)nc(N2CCOCC2)c1

>  <Subject Of Test>
b-Raf (V600E) (Homo sapiens (Human), UniProt P15056, V600E)

>  <Assigned Category>
TRUE

$$$$

Moving on to the next compound.
Please indicate if the recorded pIC50 for "Cc1ccc(NC(=O)c2ccnc(C(F)F)c2)cc1-c1nc2c(c(N3CCOCC3)n1)S(=O)(=O)CC2" meets or exceeds 8. TRUE
